Cited source for all entries: patent US20240279201A1

Test system: Wnt/β-Catenin signaling pathway
procedure details: Wnt signaling luciferase (TOPflash) reporter gene assay
Format: cell-based
experimental readout: inhibition at 1 µM (%)
Report as a plain number; the unit % is understood.

[
  {
    "compound": "Cc1c(C(=O)Nc2nc3ccccc3s2)nnn1-c1ccc(Cl)cc1",
    "measured value": 18
  },
  {
    "compound": "Cc1c(C(=O)Nc2nc3ccccc3s2)nnn1-c1ccccc1OC(F)(F)F",
    "measured value": 37
  },
  {
    "compound": "Cc1cc(Br)ccc1-n1nnc(C(=O)Nc2nc3ccccc3s2)c1C",
    "measured value": 15
  },
  {
    "compound": "Cc1ccccc1-n1nnc(C(=O)Nc2ncc(-c3ccccc3)s2)c1C",
    "measured value": 37
  },
  {
    "compound": "Cc1ccccc1-n1nnc(C(=O)Nc2nc3ccc(C(F)(F)F)cc3s2)c1C",
    "measured value": 24
  },
  {
    "compound": "Cc1c(C(=O)Nc2nc3ccccc3s2)nnn1-c1ccccc1Cl",
    "measured value": 98
  },
  {
    "compound": "Cc1c(C(=O)Nc2nc3ccccc3s2)nnn1-c1ccc(Br)cc1",
    "measured value": 32
  },
  {
    "compound": "Cc1c(C(=O)Nc2nc3ccccc3s2)nnn1-c1ccccc1Br",
    "measured value": 100
  },
  {
    "compound": "Cc1cccc(Cl)c1-n1nnc(C(=O)Nc2nc3ccccc3s2)c1C",
    "measured value": 80
  },
  {
    "compound": "Cc1c(C(=O)Nc2nc3ccccc3s2)nnn1-c1ccccc1F",
    "measured value": 100
  }
]

input: I would be grateful if you could share the reported inhibition at 1 µM for `Cc1c(C(=O)Nc2nc3ccccc3s2)nnn1-c1c(Cl)cccc1Cl` .
output: 88

input: Look at this compound and give its reported inhibition at 1 µM. `Cc1cccc(F)c1-n1nnc(C(=O)Nc2nc3ccccc3s2)c1C`
output: 92

input: Consider the compound `Cc1c(C(=O)Nc2nc3ccccc3s2)nnn1-c1ccccc1` and give its measured inhibition at 1 µM.
output: 81

input: What measured inhibition at 1 µM goes with `Cc1ccccc1-n1nnc(C(=O)Nc2nc3ccc(OC(F)(F)F)cc3s2)c1C` ?
output: 16

---

Tested on: Wnt/β-Catenin signaling pathway
procedure details: Wnt signaling luciferase (TOPflash) reporter gene assay
Assay type: cell-based
experimental parameters: luciferase reporter gene assay; mean of three independent experiments; read-out: IC50 (nM) to inhibit the Wnt signaling activity
From the text: A dual-luciferase gene reporter assay was used to test inhibitory activities of new compounds on Wnt signaling. […] Therefore, the effects of new compounds on AMPK was examined. […]
This section presents compounds with their documented IC50 values.

The cases that follow already have their IC50 on record.
[
  {
    "compound": "Cc1ccccc1-n1nnc(C(=O)Nc2nc3ccc(OC(F)(F)F)cc3s2)c1C",
    "IC50": "> 1000 nM"
  },
  {
    "compound": "COc1cccc2sc(NC(=O)c3nnn(-c4ccccc4C)c3C)nc12",
    "IC50": "> 1000 nM"
  },
  {
    "compound": "Cc1ccccc1-n1nnc(C(=O)Nc2ccc3ccccc3n2)c1C [FX1128, reference compound]",
    "IC50": "4.1 nM"
  },
  {
    "compound": "Cc1ccccc1-n1nnc(C(=O)Nc2nc3ccc(F)cc3s2)c1C",
    "IC50": "4 nM"
  },
  {
    "compound": "COc1ccccc1-n1nnc(C(=O)Nc2cnc3ccccc3n2)c1C",
    "IC50": "1.8 nM"
  }
]

input: Value lookup for IC50; key = `Cc1c(C(=O)Nc2cnc3ccccc3n2)nnn1-c1ccccc1Cl`
output: 0.11 nM

input: Any idea what its IC50 is? The compound is `Cc1ccccc1-n1nnc(C(=O)Nc2nc(-c3ccccc3Br)cs2)c1C`
output: > 1000 nM

---

System: Wnt/β-Catenin signaling pathway
procedure details: Wnt signaling luciferase (TOPflash) reporter gene assay
Assay type: cell-based
Entries and their inhibition at 1 µM
Note: unit % is implicit; provide only the numeric part.

For orientation, consider the following solved cases.
[
  {
    "molecule": "Cc1ccccc1-n1nnc(C(=O)Nc2nc3ccccc3o2)c1C [YA4067]",
    "inhibition at 1 µM (%)": 14
  },
  {
    "molecule": "Cc1ccc(-n2nnc(C(=O)Nc3nc4ccccc4s3)c2C)c(C)c1 [YA4039]",
    "inhibition at 1 µM (%)": 88
  },
  {
    "molecule": "Cc1ccccc1-n1nnc(C(=O)Nc2nc3cc(Br)ccc3s2)c1C [YA4047]",
    "inhibition at 1 µM (%)": 14
  },
  {
    "molecule": "O=C(Nc1nc2ccccc2s1)c1csc(-c2ccccc2)n1 [YA6082]",
    "inhibition at 1 µM (%)": 70
  },
  {
    "molecule": "O=C(Nc1nc2ccccc2s1)c1nnn(-c2ccccc2F)c1C(F)(F)F [YA6168]",
    "inhibition at 1 µM (%)": 91
  },
  {
    "molecule": "CC(C)(C)c1c(C(=O)Nc2nc3ccc(F)cc3s2)nnn1-c1ccccc1F [YA6174]",
    "inhibition at 1 µM (%)": 40
  },
  {
    "molecule": "COc1ccc2nc(NC(=O)c3nnn(-c4ccccc4C)c3C)sc2c1 [YA4091]",
    "inhibition at 1 µM (%)": 12
  },
  {
    "molecule": "Cc1cccc(-n2nnc(C(=O)Nc3nc4ccccc4s3)c2C)c1C [YA4037]",
    "inhibition at 1 µM (%)": 83
  }
]

input: Any idea what its inhibition at 1 µM is? The molecule is CC(C)c1c(C(=O)Nc2nc3ccccc3s2)nnn1-c1ccccc1F [YA4005]
output: 99

input: # input molecule: Cc1c(C(=O)Nc2nc3ccccc3s2)nnn1-c1cccc(F)c1 [YA1072] ; wanted: its inhibition at 1 µM
output: 42

input: What does the record list as inhibition at 1 µM for CC(C)c1c(C(=O)Nc2nc3ccc(F)cc3s2)nnn1-c1ccccc1F [YA6172] ?
output: 98

input: What value of measured inhibition at 1 µM is listed for Oc1nc(-c2ccc(C(F)(F)F)cc2)nc2c1CSCC2 [XAV939, reference compound] ?
output: 74

input: Fill blank: measured inhibition at 1 µM of the molecule Cc1cccc(Br)c1-n1nnc(C(=O)Nc2nc3ccccc3s2)c1C [YA1064] is ____.
output: 72

---

# IC50 listing for each entry below
System: Wnt/β-Catenin signaling pathway
procedure details: Wnt signaling luciferase (TOPflash) reporter gene assay
Type: cell-based
experimental parameters: luciferase reporter gene assay; mean of three independent experiments; read-out: IC50 (nM) to inhibit the Wnt signaling activity
Description: A dual-luciferase gene reporter assay was used to test inhibitory activities of new compounds on Wnt signaling. […] Therefore, the effects of new compounds on AMPK was examined. […]

[
  {
    "compound": "Cc1c(C(=O)Nc2nc3ccccc3s2)nnn1-c1ccc(Br)cc1",
    "IC50": "> 1000 nM"
  },
  {
    "compound": "Cc1ccccc1-n1nnc(C(=O)Nc2ccc3ncccc3c2)c1C",
    "IC50": "> 1000 nM"
  },
  {
    "compound": "Cc1ccccc1-n1nnc(C(=O)Nc2nc3c(Cl)cccc3s2)c1C",
    "IC50": "> 1000 nM"
  },
  {
    "compound": "Cc1ccccc1-n1nnc(C(=O)Nc2ccc3c(Br)cccc3n2)c1C",
    "IC50": "> 1000 nM"
  },
  {
    "compound": "CCc1c(C(=O)Nc2nc3ccccc3s2)cnn1-c1ccccc1",
    "IC50": "3.6 nM"
  }
]

input: I'd like to know its IC50. The compound in question is `Cc1ccccc1-n1nnc(C(=O)Nc2ccc3cnccc3c2)c1C`
output: > 1000 nM

---

System: Wnt/β-Catenin signaling pathway
procedure details: Wnt signaling luciferase (TOPflash) reporter gene assay
Type: cell-based
experimental parameters: luciferase reporter gene assay; mean of three independent experiments; read-out: IC50 (nM) to inhibit the Wnt signaling activity
Listed molecules paired with reported IC50

Consider the reported IC50 for these molecules:
[
  {
    "molecule": "Cc1ccccc1-n1nnc(C(=O)Nc2ccc3cc(O)ccc3n2)c1C",
    "IC50": "> 1000 nM"
  },
  {
    "molecule": "Cc1ccccc1-n1nnc(C(=O)Nc2nc3c(Br)cccc3s2)c1C",
    "IC50": "> 1000 nM"
  },
  {
    "molecule": "Cc1c(C(=O)Nc2nc3ccccc3s2)nnn1-c1cccc(F)c1",
    "IC50": "> 1000 nM"
  },
  {
    "molecule": "Cc1c(C(=O)Nc2nc3ccccc3s2)nnn1-c1ccc(F)cc1",
    "IC50": "> 1000 nM"
  }
]

Next molecule, please.
input: May I ask what IC50 has been recorded for `COc1ccccc1-n1ncc(C(=O)Nc2nc3ccccc3s2)c1C` ?
output: 9.5 nM
